Provide the recorded LogAUC for the entries that follow.
Target: CH505.M9D8gp120/293F
Experiment: ELISA
Enter the number alone.

Q) Given CH557 (antibody, V domains shown, also called CH235.12; CH557_4A/293i) VH: QVRLAQYGGGVKRLGATMTLSCVASGYTFNDYYIHWVRQAPGQGFELLGYIDPANGRPDYAGALRERLSFYRDKSMETLYMDLRSLRYDDTAMYYCVRNVGTAGSLLHYDHWGSGSPVIVSS VL: EIVLTQSPATLSASPGERVTLTCRASRSVRNNVAWYQHKGGQSPRLLIYDASTRAAGVPARFSGSASGTEFTLAISNLESEDFTVYFCLQYNNWWTFGQGTRVDIK , state its recorded LogAUC.
A) 0.38

Q) Same lookup for CH493 (antibody, V domains shown, also called CH235.9; DH493) VH: QVRLLQYGGGVKRPGASMTISCVASGYNFNDYYIHWVRQAPGQGLELMGWIDPSGGRTDYAGAFGDRVSMYRDKSMNTLYMDLRSLRSGDTAMYYCVRNVGTAGSLLHYDHWGLGVMVTVSS VL: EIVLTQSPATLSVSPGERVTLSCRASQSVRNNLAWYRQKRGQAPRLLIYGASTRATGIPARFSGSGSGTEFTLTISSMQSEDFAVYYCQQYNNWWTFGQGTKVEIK , please.
A) 1.31

Q) Same lookup for CH556 (antibody, V domains shown, also called CH235.11) VH: QVQLVQSGGTVKSPGTSVTLSCKTSGYNFIDYYIHWVRRAPGQRPELMGYIDPSHGRPDYEGKFRDRISLYRDTSTSVVYMDVRGLRLDDTALYYCVRGGGVEVSSNHYDHWGPGTMVFVSP VL: ETTLTQSPDTLSASPGERVTLSCRAAQSVGSQVAWFRHIRGQPPRLLISGASTRAAGVPARFSGSGSGTDFTLTISGMQSEDFAEYFCQQYHMWWTFGQGTRVDKN , please.
A) 0.23

Where do these numbers come from? They come from patent US10450368.
